Data provenance: patent US5840684A

System: Staphylococcus aureus SA1199B
Type: cell-based
MEASUREMENT_NAME: MIC
Give the figure together with its unit, number first.

See these solved cases before continuing.
CNC(CC(C)C)C(=O)NC1C(=O)NC(CC(N)=O)C(=O)NC2C(=O)NC3C(=O)NC(C(=O)NC(C(=O)O)c4cc(O)cc(O)c4-c4cc3ccc4O)C(OC3CC(C)(N)C(O)C(C)O3)c3ccc(c(Cl)c3)Oc3cc2cc(c3OC2OC(CO)C(O)C(O)C2OC2CC(C)(NCCCCC#Cc3ccccc3)C(O)C(C)O2)Oc2ccc(cc2Cl)C1O (stereo not drawn) [Compound 235]; 0.5 µg/mL
CNC(CC(C)C)C(=O)NC1C(=O)NC(CC(N)=O)C(=O)NC2C(=O)NC3C(=O)NC(C(=O)NC(C(=O)O)c4cc(O)cc(O)c4-c4cc3ccc4O)C(OC3CC(C)(N)C(O)C(C)O3)c3ccc(c(Cl)c3)Oc3cc2cc(c3OC2OC(CO)C(O)C(O)C2OC2CC(C)(NCCCCCCCCOc3ccccc3)C(O)C(C)O2)Oc2ccc(cc2Cl)C1O (stereo not drawn) [Compound 195]; 1 µg/mL
CN[C@H](CC(C)C)C(=O)N[C@H]1C(=O)N[C@@H](CC(N)=O)C(=O)N[C@H]2C(=O)N[C@H]3C(=O)N[C@H](C(=O)N[C@H](C(=O)O)c4cc(O)cc(O)c4-c4cc3ccc4O)[C@H](O[C@H]3C[C@](C)(N)[C@@H](O)[C@H](C)O3)c3ccc(c(Cl)c3)Oc3cc2cc(c3O[C@@H]2O[C@H](CO)[C@@H](O)[C@H](O)[C@H]2O[C@H]2C[C@](C)(NCc3ccc(Oc4ccc(C)cc4)cc3)[C@@H](O)[C@H](C)O2)Oc2ccc(cc2Cl)[C@H]1O [Compound 95]; 1 µg/mL
CN[C@H](CC(C)C)C(=O)N[C@H]1C(=O)N[C@@H](CC(N)=O)C(=O)N[C@H]2C(=O)N[C@H]3C(=O)N[C@H](C(=O)N[C@H](C(=O)O)c4cc(O)cc(O)c4-c4cc3ccc4O)[C@H](O[C@H]3C[C@](C)(N)[C@@H](O)[C@H](C)O3)c3ccc(c(Cl)c3)Oc3cc2cc(c3O[C@@H]2O[C@H](CO)[C@@H](O)[C@H](O)[C@H]2O[C@H]2C[C@](C)(N)[C@@H](O)[C@H](C)O2)Oc2ccc(cc2Cl)[C@H]1O [Compound A82846B, A82846B, reference compound]; 0.125 µg/mL
CNC(CC(C)C)C(=O)NC1C(=O)NC(CC(N)=O)C(=O)NC2C(=O)NC3C(=O)NC(C(=O)NC(C(=O)O)c4cc(O)cc(O)c4-c4cc3ccc4O)C(OC3CC(C)(N)C(O)C(C)O3)c3ccc(c(Cl)c3)Oc3cc2cc(c3OC2OC(CO)C(O)C(O)C2OC2CC(C)(NCc3ccc(OC(=O)c4ccccc4)cc3)C(O)C(C)O2)Oc2ccc(cc2Cl)C1O (stereo not drawn) [Compound 150]; 0.5 µg/mL

Now examine the next entry.
Entry CNC(CC(C)C)C(=O)NC1C(=O)NC(CC(N)=O)C(=O)NC2C(=O)NC3C(=O)NC(C(=O)NC(C(=O)O)c4cc(O)cc(O)c4-c4cc3ccc4O)C(OC3CC(C)(N)C(O)C(C)O3)c3ccc(c(Cl)c3)Oc3cc2cc(c3OC2OC(CO)C(O)C(O)C2OC2CC(C)(NCc3ccc4c(c3)CCc3ccccc3-4)C(O)C(C)O2)Oc2ccc(cc2Cl)C1O (stereo not drawn) [Compound 220] , MIC reported as 0.5 µg/mL
